- assayed target: human V1a receptor (Homo sapiens)
- Construct: expressed in transfected cells; host or cells: CHO K1 (ATCC), also stably transfected with a modified aequorin
- experimental details: Cellular in vitro assay for determining vasopressin receptor activity (V1a, aequorin luminescence)
- Assay type: cell-based
- measurement context: selectivity ratio of IC50 hV2 to IC50 hV1a
recorded endpoint: ratio IC50 hV2/hV1a

Record excerpt, results attached:
# molecule, ratio IC50 hV2/hV1a
rows = [
    ("C[C@@H](OC(N)=O)c1nc(Cn2nc(-c3ccc(Cl)cc3)n(C[C@H](O)C(F)(F)F)c2=O)nn1-c1c(Cl)cccc1Cl", 6.0),
    ("C[C@@H](OC(N)=O)c1nc(Cn2nc(-c3ccc(Cl)cc3)n(C[C@H](O)C(F)(F)F)c2=O)nn1-c1ccccc1OC(F)(F)F", 190.5),
    ("CC(=O)NC(CO)c1nc(Cn2nc(-c3ccc(Cl)cc3)n(C[C@H](O)C(F)(F)F)c2=O)nn1-c1ccccc1Cl (single isomer, unassigned) [Example 92]", 3.4),
    ("C[C@@H](OC(N)=O)c1nc(Cn2nc(-c3ccc(Cl)cc3)n(C[C@H](O)C(F)(F)F)c2=O)nn1-c1cccc(Cl)c1", 0.1),
    ("Cc1ccccc1-n1nc(Cn2nc(-c3ccc(Cl)cc3)n(C[C@H](OC(N)=O)C(F)(F)F)c2=O)nc1COC(N)=O", 5.5),
]

A. CN1C(=O)CC[C@@H]1c1nc(Cn2nc(-c3ccc(Cl)cc3)n(C[C@H](O)C(F)(F)F)c2=O)nn1-c1ncccc1Cl (single isomer, unassigned) [Example 104]
B. COCCNC(=O)OCc1nc(Cn2nc(-c3ccc(Cl)cc3)n(C[C@H](O)C(F)(F)F)c2=O)nn1-c1ccccc1C(F)(F)F
C. CS(=O)(=O)NC(CO)c1nc(Cn2nc(-c3ccc(Cl)cc3)n(C[C@H](O)C(F)(F)F)c2=O)nn1-c1ccccc1Cl (single isomer, unassigned) [Example 87]
D. C[C@@H](OC(N)=O)c1nc(Cn2nc(-c3ccc(Cl)cc3)n(C[C@H](O)C(F)(F)F)c2=O)nn1-c1ncccc1Cl
Ranking field: ratio IC50 hV2/hV1a; order: falling. // rank by listing labels in the order requested
A, D, C, B

* * *

- assayed target: human V2 receptor (Homo sapiens, UniProt P30518)
- Sequence (P30518 whole entry): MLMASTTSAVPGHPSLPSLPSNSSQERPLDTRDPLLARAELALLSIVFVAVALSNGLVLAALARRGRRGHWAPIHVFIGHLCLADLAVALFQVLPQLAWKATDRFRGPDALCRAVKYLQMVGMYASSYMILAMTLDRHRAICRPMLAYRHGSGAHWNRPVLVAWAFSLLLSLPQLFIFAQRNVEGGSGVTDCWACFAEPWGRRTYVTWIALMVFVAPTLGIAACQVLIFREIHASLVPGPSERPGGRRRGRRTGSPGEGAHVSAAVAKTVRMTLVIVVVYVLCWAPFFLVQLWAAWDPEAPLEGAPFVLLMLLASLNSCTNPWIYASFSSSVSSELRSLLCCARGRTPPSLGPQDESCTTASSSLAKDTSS
- experimental details: Cellular in vitro assay for determining vasopressin receptor activity (V2, CRE-luciferase)
- measurement context: CHO cell line transfected with the human V2 receptor; [Arg8]-vasopressin at EC50 concentration; read-out: IC50 hV2
recorded endpoint: IC50 (nM)

Record excerpt, results attached:
# compound, IC50 / nM
rows = [
    ("O=C1NC(c2nc(Cn3nc(-c4ccc(Cl)cc4)n(C[C@H](O)C(F)(F)F)c3=O)nn2-c2ncccc2OC(F)(F)F)CO1 (mixture of isomers) [Example 117]", 470),
    ("CS(=O)(=O)NC(CO)c1nc(Cn2nc(-c3ccc(Cl)cc3)n(C[C@H](O)C(F)(F)F)c2=O)nn1-c1ccccc1Cl (single isomer, unassigned) [Example 87]", 35.5),
    ("NC(=O)OCc1nc(Cn2nc(-c3ccc(Cl)cc3)n(C[C@H](O)C(F)(F)F)c2=O)nn1-c1cccc(Cl)c1", 5.29),
]

1. COc1ccccc1-n1nc(Cn2nc(-c3ccc(Cl)cc3)n(C[C@H](O)C(F)(F)F)c2=O)nc1C(C)OC(N)=O (single isomer, unassigned) [Example 41]
2. O=C(NC(CO)c1nc(Cn2nc(-c3ccc(Cl)cc3)n(C[C@H](O)C(F)(F)F)c2=O)nn1-c1ccccc1Cl)C(F)(F)F (single isomer, unassigned) [Example 97]
Task for the reader: decide whether 1 or 2 has the larger IC50. Record your answer as the label of the chosen record.
2

* * *

- assayed target: human V1a receptor (Homo sapiens, UniProt P37288)
- Sequence (P37288 whole entry): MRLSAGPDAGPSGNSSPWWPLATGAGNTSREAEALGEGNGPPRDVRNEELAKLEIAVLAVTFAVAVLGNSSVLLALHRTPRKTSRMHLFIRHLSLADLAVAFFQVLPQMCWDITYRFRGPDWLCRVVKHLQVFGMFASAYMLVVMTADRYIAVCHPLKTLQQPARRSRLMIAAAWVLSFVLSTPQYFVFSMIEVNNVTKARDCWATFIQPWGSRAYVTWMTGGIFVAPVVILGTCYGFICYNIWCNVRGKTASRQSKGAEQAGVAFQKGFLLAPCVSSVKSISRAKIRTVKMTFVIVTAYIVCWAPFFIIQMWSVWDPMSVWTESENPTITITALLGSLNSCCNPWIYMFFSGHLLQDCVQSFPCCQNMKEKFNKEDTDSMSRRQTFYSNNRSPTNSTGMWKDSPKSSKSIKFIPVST
- experimental details: Cellular in vitro assay for determining vasopressin receptor activity (V1a, aequorin luminescence)
- measurement context: CHO cell line transfected with the human V1a receptor; [Arg8]-vasopressin at EC50 concentration; read-out: IC50 hV1a
- Experimental: B-1. Cellular In Vitro Assay for Determining Vasopressin Receptor Activity The identification of agonists and antagonists of the V1a and V2 vasopressin receptors from humans, rats and dogs as well as the quantification of the activity of the compounds of the invention is carried out using recombinant cell lines. […] The bioluminescence of the cell lines is detected using a suitable luminometer [Milligan G, Marshall F, Rees S, Trends in Pharmacological Sciences 17, 235-237 (1996)]. […]
recorded endpoint: IC50 (nM)

Record excerpt, results attached:
# compound, reading unit, IC50
rows = [
    ("CC(C)(C)OCC(N)c1nc(Cn2nc(-c3ccc(Cl)cc3)n(C[C@H](O)C(F)(F)F)c2=O)nn1-c1ccccc1Cl (mixture of isomers) [Example 80]", "nM", 0.61),
    ("CC(=O)NC(CO)c1nc(Cn2nc(-c3ccc(Cl)cc3)n(C[C@H](O)C(F)(F)F)c2=O)nn1-c1ncccc1OC(F)(F)F (single isomer, unassigned) [Example 122]", "nM", 6.35),
    ("C[C@@H](OC(N)=O)c1nc(Cn2nc(-c3ccc(Cl)cc3)n(C[C@H](O)C(F)(F)F)c2=O)nn1-c1ccccc1OC(F)F [Example 6]", "nM", 0.81),
    ("C[C@H](OC(N)=O)c1nc(Cn2nc(-c3ccc(Cl)cc3)n(C[C@H](O)C(F)(F)F)c2=O)nn1-c1ccccn1 [Example 10]", "nM", 52.5),
]

P. CC(NC(=O)C(F)(F)F)c1nc(Cn2nc(-c3ccc(Cl)cc3)n(C[C@H](O)C(F)(F)F)c2=O)nn1-c1ccccc1Cl (single isomer, unassigned) [Example 74]
Q. CN1C(=O)CCC1c1nc(Cn2nc(-c3ccc(Cl)cc3)n(C[C@H](O)C(F)(F)F)c2=O)nn1CCC(F)(F)F (single isomer, unassigned) [Example 132]
Quick one: lower IC50, P or Q ? Record your answer as the label of the chosen record.
P

* * *

- assayed target: UniProtKB P37288
- experimental details: Cellular in vitro assay for determining vasopressin receptor activity (V1a, aequorin luminescence)
- measurement context: CHO cell line transfected with the human V1a receptor; [Arg8]-vasopressin at EC50 concentration; read-out: IC50 hV1a
recorded endpoint: IC50 (nM)

# compound, data value
measured = [
    ("C[C@H](OC(N)=O)c1nc(Cn2nc(-c3ccc(Cl)cc3)n(C[C@H](O)C(F)(F)F)c2=O)nn1-c1ccccc1Cl", 0.99),
]

a. CC(=O)NC(C)c1nc(Cn2nc(-c3ccc(Cl)cc3)n(C[C@H](O)C(F)(F)F)c2=O)nn1-c1ncccn1 (mixture of isomers)
b. COCCNC(=O)OCc1nc(Cn2nc(-c3ccc(Cl)cc3)n(C[C@H](O)C(F)(F)F)c2=O)nn1-c1ccccc1Cl
Quick one: lower IC50, a or b ? Record your answer as the label of the chosen record.
b

* * *

- assayed target: UniProt:P30518
- experimental details: Cellular in vitro assay for determining vasopressin receptor activity (V2, CRE-luciferase)
- measurement context: CHO cell line transfected with the human V2 receptor; [Arg8]-vasopressin at EC50 concentration; read-out: IC50 hV2
pIC50: −log10 of the molar value. Counter-ions that a name gives are not always drawn.
recorded endpoint: pIC50

Record excerpt, results attached:
# compound, pIC50
measured = [
    ("C[C@H](OC(N)=O)c1nc(Cn2nc(-c3ccc(Cl)cc3)n(C[C@H](O)C(F)(F)F)c2=O)nn1-c1c(Cl)cccc1Cl [Example 1]", 7.79),
    ("C[C@@H](OC(N)=O)c1nc(Cn2nc(-c3ccc(Cl)cc3)n(C[C@H](O)C(F)(F)F)c2=O)nn1-c1ncccc1Cl [Example 15]", 7.45),
    ("COCCNC(=O)OCc1nc(Cn2nc(-c3ccc(Cl)cc3)n(C[C@H](O)C(F)(F)F)c2=O)nn1-c1ccccc1Cl [Example 48]", 8.23),
]

I. CN1C(=O)CCC1c1nc(Cn2nc(-c3ccc(Cl)cc3)n(C[C@H](O)C(F)(F)F)c2=O)nn1-c1ccccc1Cl (mixture of isomers) [Example 70]
II. C[C@H](N)c1nc(Cn2nc(-c3ccc(Cl)cc3)n(C[C@H](O)C(F)(F)F)c2=O)nn1-c1cccc(Cl)c1 [Example 57, hydrochloride]
III. O=C1NC(c2nc(Cn3nc(-c4ccc(Cl)cc4)n(C[C@H](O)C(F)(F)F)c3=O)nn2-c2ncccc2OC(F)(F)F)CO1 (single isomer, unassigned) [Example 118]
Arrange the 3 compounds by rising pIC50, starting with the smallest. // rank by listing labels in the order requested
III, I, II
(III: 6.41, I: 8.15, II: 8.89)

* * *

- assayed target: human V1a receptor (Homo sapiens, UniProt P37288)
- experimental details: Cellular in vitro assay for determining vasopressin receptor activity (V1a, aequorin luminescence)
- measurement context: CHO cell line transfected with the human V1a receptor; [Arg8]-vasopressin at EC50 concentration; read-out: IC50 hV1a
recorded endpoint: IC50 (nM)

Record excerpt, results attached:
# compound, assayed target, recorded endpoint, data value
data = [
    ("COc1ccccc1-n1nc(Cn2nc(-c3ccc(Cl)cc3)n(C[C@H](OC(N)=O)C(F)(F)F)c2=O)nc1C(C)OC(N)=O (single isomer, unassigned) [Example 40]", "human V1a receptor (Homo sapiens, UniProt P37288)", "IC50", 5.86),
    ("Cc1ccccc1-n1nc(Cn2nc(-c3ccc(Cl)cc3)n(C[C@H](OC(N)=O)C(F)(F)F)c2=O)nc1COC(N)=O", "human V1a receptor (Homo sapiens, UniProt P37288)", "IC50", 0.65),
    ("CNc1ccncc1-n1nc(Cn2nc(-c3ccc(Cl)cc3)n(C[C@H](O)C(F)(F)F)c2=O)nc1C(C)NC(C)=O (single isomer, unassigned) [Example 127]", "human V1a receptor (Homo sapiens, UniProt P37288)", "IC50", 53),
    ("CN1C(=O)CCC1c1nc(Cn2nc(-c3ccc(Cl)cc3)n(C[C@H](O)C(F)(F)F)c2=O)nn1CCC(F)(F)F (mixture of isomers) [Example 130]", "human V1a receptor (Homo sapiens, UniProt P37288)", "IC50", 21),
]

A. CC(=O)NC(C)c1nc(Cn2nc(-c3ccc(Cl)cc3)n(C[C@H](O)C(F)(F)F)c2=O)nn1-c1ccccc1Cl (mixture of isomers) [Example 64]
B. CC(N)c1nc(Cn2nc(-c3ccc(Cl)cc3)n(C[C@H](O)C(F)(F)F)c2=O)nn1-c1cccc(F)c1 (single isomer, unassigned) [Example 54]
Task for the reader: decide whether A or B has the larger IC50. Record your answer as the label of the chosen record.
B
